The values you see were collected from patent US12686701B2.

# Test description: Hydroxyl radical scavenging activity by room temperature EPR (Fenton reaction, DMPO spin trap)
# Type: biochemical
# Assay conditions: all analytes at 1 mM; potassium phosphate pH 7.4; average of three or more trials
*1 amine or outer side, *2 acyl side, *3 side chain or, on linkers, in order; H or OH if unused. Where a SMILES comes first, the peptide text is derived from it. [ ]: non-standard residue; d: D form. X1 = O=C([C@H](Cc1c[nH]c(=S)[nH]1)N[*:1])[*:2]
Value kind: Hydroxyl Radical RSA (%)
Give just the number in %; leave the unit off.

Give the measured Hydroxyl Radical RSA (%) of N[C@@H](Cc1c[nH]cn1)C(=O)O .
48.5

Give the measured Hydroxyl Radical RSA (%) of CC(C)C[C@H](NC(=O)[C@@H]1CCCN1C(=O)CNC(=O)[C@H](CC(C)C)NC(=O)[C@@H]1CCCN1C(=O)CNC(=O)[C@@H](N)Cc1c[nH]c(=S)[nH]1)C(=O)O [thioHGPLGPL, H-thioHGPLGPL-OH] (H-[X1]GPLGPL-OH) .
59.7

Give the measured Hydroxyl Radical RSA (%) of NC(Cc1c[nH]c(=S)[nH]1)C(=O)O (stereo not shown) .
56.0

Give the measured Hydroxyl Radical RSA (%) of NCCC(=O)N[C@@H](Cc1cnc[nH]1)C(=O)O [Carnosine, H-βAH-OH, reference compound] .
31.4
